This listing pairs compounds with measured pIC50.
# Test system: HepG2
# assay-remarks: Cytotoxicity in human HepG2 cells incubated for 72 hrs by sulforhodamine B assay
# conditions-used: HepG2, 72 h
For clarity, pIC50 is expressed as the negative log10 of concentration in mol/L.

Consider the reported pIC50 for these compounds:
1) COc1cc2c(cc1OC)Nc1ncnc(Oc3ccc(NC(=O)C4(C(=O)Nc5ccc(F)cc5)CC4)cc3F)c1N=C2; 5.87
2) COc1cc2c(cc1OC)Nc1ncnc(Oc3ccc(NC(=O)C4(C(=O)Nc5ccc(F)cc5)CC4)cc3F)c1NC2; 5.53
3) COc1cc2c(cc1OC)Nc1ncnc(Oc3ccc(NC(=O)C4(C(=O)Nc5ccc(F)cc5)CC4)cc3)c1NC2; 5.31

Challenge: For the compound shown here, COc1cc2c(cc1OC)Nc1ncnc(Oc3ccc(NC(=O)C4(C(=O)Nc5ccc(F)cc5)CC4)cc3)c1N=C2 , give the reported pIC50.
Response given: 5.68

Cited source for all entries: ChEMBL document CHEMBL4190351
